- Tested on: HepG2
- RUN_DESCRIPTION: GSK_TCMDC: Percent inhibition of human HepG2 cell line. Test compounds present at 10uM.
- Format: functional
Tag: label 1 if measured Inhibition is not below 20%, label 0 if it is.

Example entries and their recorded answers appear below.
[
  {
    "COMPOUND": "CN(CC(=O)Nc1cc(C(F)(F)F)ccc1-n1cncn1)Cc1nc2ccccc2s1",
    "ASSIGNED_LABEL": "label 0"
  },
  {
    "COMPOUND": "COc1cc(NC(=O)c2ccc(-c3ccccc3)cc2)ccc1OCCCN1CCC(c2ccccc2)CC1.Cl",
    "ASSIGNED_LABEL": "label 1"
  },
  {
    "COMPOUND": "Cc1ccc(NC(=O)c2ccc(N3CCN(c4ccncc4)CC3)cn2)cc1F.O=C(O)C(F)(F)F",
    "ASSIGNED_LABEL": "label 0"
  },
  {
    "COMPOUND": "Fc1ccccc1C=NN=c1cc[nH]c2ccc(C(F)(F)F)cc12",
    "ASSIGNED_LABEL": "label 0"
  },
  {
    "COMPOUND": "CCOc1cc(Cc2cnc(N)nc2N)cc(OCC)c1O",
    "ASSIGNED_LABEL": "label 0"
  }
]

**Q:** API: above_or_equal(metric=Inhibition, cutoff=20%) for item CC[C@H](NC(=O)c1c(CCCN2CCN(c3ccccc3)CC2)c(-c2ccccc2)nc2cc(O)ccc12)c1ccccc1
**A:** label 0

**Q:** Entry Cc1cc(N2CCCN(C)CC2)nc(Nc2ccc(Br)cc2)n1 : is its Inhibition no less than 20%?
**A:** label 0

**Q:** Answer whether Inhibition of COc1c(Br)cc(Br)cc1-c1ccc(CN2CC3CCC2CC3)[nH]1.Cl is greater than or equal to 20%.
**A:** label 1

**Q:** Could you verify whether the entry O=C(/C=C/c1ccc(Cl)c(Cl)c1)NCCCCCN1CCC(C(=O)Nc2ccc(Cl)c(Cl)c2)CC1 shows Inhibition of no less than 20%?
**A:** label 1

**Q:** Exam item: decide whether the reported Inhibition for Cc1ccc(Oc2ccc(CNc3nc(Nc4cccc(F)c4)nc(Nc4cccc(F)c4)n3)cc2)cc1 is at least 20%.
**A:** label 0
